TEST NAME: small-molecule microarray binders of probe aShh, primary screen, biochemical, biotinylated probe, 635/667 nm fluorescence (AID 1114);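 further: probe is biotin-labelled aShh protein from a stem cell growth factor screen; measures binding of labelled protein to compounds printed on the slide; score merges feature fluorescence at 667 nm with signal-to-noise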
REPORTED CONDITIONS: higher = more signal
OBSERVABLE: composite z-score
Answers are plain numbers.

Example results:
• CON=C(C)CCC(=O)OC[C@H]1O[C@H](c2ccccc2)C=C[C@@H]1Oc1ccc(OC)cc1 = -0.0769
• CCOC(=O)NN=C1C[C@@H](O)[C@@H](O)[C@@H]2[C@@H]3C(=O)N(c4cccc(Oc5ccccc5)c4)C(=O)[C@@H]3CC[C@@H]12 = -0.32
• CCOC(=O)[C@H](CC(C)C)NC(=O)CCC1CC(OC(=O)NCc2ccc3c(c2)OCO3)CC2(CCCC(COC(=O)NCc3cccc(C(F)(F)F)c3)O2)O1 (stereo partly specified) = -0.138
• C#CCCCON=C1C[C@@H](O)[C@@H](O)[C@@H]2[C@@H]3C(=O)N(Cc4ccccc4)C(=O)[C@@H]3CC[C@@H]12 = -0.253
• CCOC(=O)[C@H](Cc1ccccc1)NC(=O)CCC1CC(OC(=O)NCCc2ccc(F)cc2)CC2(CCCC(COC(=O)NCCc3ccccc3OC)O2)O1 (stereo partly specified) = 0.0278

Now consider the entry below.
The molecule identified as `CCO[C@H](c1cc(OC)cc([N+](=O)[O-])c1OC)[C@H](C)C=CCC(=O)OC` registered its composite z-score at -0.214

----------
TEST NAME: Plasmodium falciparum growth inhibition, primary screen, strain 3D7, DAPI fluorescence, 100 nL (AID 1184);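 further: parasites grown inside human red blood cells in medium with human serum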
REPORTED CONDITIONS: P. falciparum 3D7 growth, 3 d, higher = more signal
Binary call on z-score: YES from 0.5 upward, NO beneath that.

Solved cases (5 shown):
• CO[C@H]1COC(=O)[C@H](C)NC(=O)CC=C[C@@H](C)[C@H](OC)COC(=O)[C@@H](OCc2ccccc2)C=C[C@@H]1C = NO
• CCN1C(=O)[C@H]2[C@H]3[C@H](O)[C@H](O)CC(=NOCC(C)C)[C@@H]3CC[C@H]2C1=O = NO
• CCCCc1nc2c(c3c1C[C@H](C)OC3)CN(CCOc1ccccc1)CC2 = YES
• COc1ccc(O[C@H]2C=C[C@@H](c3ccccc3)O[C@@H]2COC(=O)CCC(C)=NO[C@@H]2O[C@H](COC(C)=O)[C@@H](OC(C)=O)[C@H](OC(C)=O)[C@H]2OC(C)=O)cc1 = NO
• COC(=O)[C@@H]1CC[C@H](C)[C@@H](c2ccc(C)cc2)N1C(=O)c1ccc(C=NO[C@H](C)c2cn([C@@H]3COC[C@H]3O)nn2)cc1 = NO

stdin: Say whether CCOC(=O)[C@H](Cc1ccccc1)NC(=O)CCC1CC(OC(=O)NCCc2ccc(F)cc2)CC2(CCCC(COC(=O)NCCCN3CCCC3=O)O2)O1 (stereo partly specified) shows z-score of 0.5 or more.
stdout: NO

stdin: Say whether `COc1cccc([C@H]2Oc3ccc(OC)cc3C(=NOC[C@@H](C)[C@H](OCc3ccccc3)C(C)C)[C@@H]2O)c1` shows z-score of 0.5 or more.
stdout: NO

----------
Test system: XIP peptide (Xip251-270)
TEST NAME: small-molecule binders of XIP peptide, primary screen, biochemical, small-molecule microarray, fluorescence 635/667 nm, 0.5 µg/mL protein (AID 1183)
REPORTED CONDITIONS: small-molecule microarray binding, fluorescence 635 nm; higher = more signal
Binary call on composite z-score: satisfied from 0.2 upward, not satisfied beneath that.

- C#CCCCON=C1C[C@@H](O)[C@@H](O)[C@@H]2[C@@H]3C(=O)N(c4ccc(F)cc4F)C(=O)[C@@H]3CC[C@@H]12: not satisfied

stdin: Say whether `CO[C@@H]1COC(=O)[C@@H](C)NC(=O)CC=C[C@@H](C)[C@H](NS(=O)(=O)c2ccc(C)cc2)COC(=O)[C@H](C)NC(=O)CC=C[C@H]1C` shows composite z-score of 0.2 or more.
stdout: not satisfied

stdin: Say whether `C=COC[C@@H]1CN2[C@@H](CC[C@@H](C)[C@@H]2c2ccc(Br)cc2)C(=O)O1` shows composite z-score of 0.2 or more.
stdout: not satisfied

----------
TEST NAME: small-molecule binders of probe aLefty1, primary screen, biochemical, small-molecule microarray, 635/667 nm fluorescence (AID 1153);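 further: score merges spot fluorescence with signal-to-noise ratio from the scanned slide images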
REPORTED CONDITIONS: higher = more signal
What composite z-score was measured for each of the following?
Answers are plain numbers.

* CCN1C(=O)[C@H]2[C@H]3[C@H](O)[C@H](O)CC(=O)[C@H]3CC[C@H]2C1=O | -0.0603

Could I get composite z-score for every one of these entries?
1. CCOC(=O)NN=C1C[C@@H](O)[C@@H](O)[C@@H]2[C@@H]3C(=O)N([C@@H](C)c4ccccc4)C(=O)[C@@H]3CC[C@@H]12
2. CCOC(=O)[C@H](CC(C)C)NC(=O)CCC1CC(OC(=O)NCCc2ccc(F)cc2)CC2(CCCC(COC(=O)NCC(c3ccccc3)c3ccccc3)O2)O1 (stereo not given in full)
3. CC(CCN1CCCCc2nc(C)c(C)cc21)=NO[C@@H](C)c1cn([C@H](CO)Cc2ccccc2)nn1

stdout:
-0.0523
-0.147
0.0618

----------
TEST NAME: P. aeruginosa biofilm formation inhibitors, primary screen, strain PAO1, LB-PBS medium, absorbance 600 nm (AID 1176)
REPORTED CONDITIONS: P. aeruginosa PAO1 growth/biofilm, A600, 12 h; higher = more signal
Calls of active or inactive are those of the source. The rule behind the calls is not given here.
OBSERVABLE: z-score

Example results:
• COC(=O)[C@H]1[C@@H](O)[C@@]2(O)c3ccccc3O[C@@]2(c2ccccc2)[C@@H]1c1ccccc1 = -0.175 (inactive)
• C[C@H]1CC[C@H]2C(=O)OC(CO)CN2[C@@H]1c1ccc(Br)cc1 (some centres undefined) = 0.967 (inactive)
• CC(CCN1CCc2nc(-c3ccccc3)c(-c3ccccc3)cc2C1)=NOC[C@@H](O)[C@H]1O[C@@H]2OC(C)(C)O[C@@H]2[C@H]1O = 0.359 (inactive)

Now consider the entry below.
The compound identified as `CO[C@H]1COC(=O)CCC[C@@H](C)[C@H](OC)COC(=O)[C@@H]2CCCN2C(=O)CC=C[C@@H]1C` registered its z-score at -1.04 (inactive)

----------
TEST NAME: S. cerevisiae growth modulation with rapamycin, primary screen, strain BY4716, OD600, 96 h (AID 1091)
REPORTED CONDITIONS: higher = more signal, called active from +8 up or from −8 down
What z-score was measured for each of the following?
One number for each entry.

- COc1cccc([C@H]2Oc3ccc(OC)cc3C(=NOC[C@@H](C)[C@H](OCc3ccccc3)C(C)C)[C@@H]2O)c1: 0.588
- CCOC(=O)[C@H](CC(C)C)NC(=O)CCC1CC(OC(=O)NCc2ccc3c(c2)OCO3)CC2(CCCC(COC(=O)NCC(c3ccccc3)c3ccccc3)O2)O1 (stereo partly drawn): 0.34

The compound identified as CCOC(=O)[C@H](CC(C)C)NC(=O)CCC1CC(OC(=O)NCc2cccc3ccccc23)CC2(CCCC(COC(=O)NCCOC)O2)O1 (stereo partly drawn) registered its z-score at -1.09

----------
TARGET UNDER TEST: Fibroblast growth factor 2 (Homo sapiens) (UniProt P09038)
Sequence (P09038 whole entry, looked up): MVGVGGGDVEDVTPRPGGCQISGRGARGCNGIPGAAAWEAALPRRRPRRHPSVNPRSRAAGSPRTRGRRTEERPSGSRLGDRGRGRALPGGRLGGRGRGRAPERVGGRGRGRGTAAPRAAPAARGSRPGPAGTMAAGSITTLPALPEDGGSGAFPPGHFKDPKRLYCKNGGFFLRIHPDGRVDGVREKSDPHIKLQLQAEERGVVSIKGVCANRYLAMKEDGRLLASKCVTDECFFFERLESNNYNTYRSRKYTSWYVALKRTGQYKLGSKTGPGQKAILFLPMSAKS
TEST NAME: FGF2 binders on small-molecule microarrays, primary screen, biochemical, small-molecule microarray, 635/667 nm fluorescence (AID 1133)
REPORTED CONDITIONS: small-molecule microarray binding, FGF2, fluorescence 635/667; higher = more signal
OBSERVABLE: composite z-score
Numbers only.

Example results:
* COc1ccc(C#C[C@@H]2C=C[C@H](OC(C)=O)[C@@H](COC(C)=O)O2)cc1 | 0.183
* CC(CCN1CCc2nc(-c3ccccc3)c(-c3ccccc3)cc2C1)=NOC[C@@H](O)COCc1ccco1 | 0.496
* COC(=O)CC=C[C@H](C)[C@@H](OCc1cccc(Br)c1)[C@@H](C)[C@H](OC)C1CCCCC1 | -0.0877
* CCN1C(=O)[C@H]2[C@H]3[C@H](O)[C@H](O)CC(=O)[C@H]3CC[C@H]2C1=O | 0.485
* CC(CCN1CCCc2nc(C)c(C)cc21)=NOC(C)CN1CCCCc2nc(C)c(C)cc21 (stereo unspecified) | 0.785

The compound identified as `C#CCCCON=C1C[C@@H](O)[C@@H](O)[C@@H]2[C@@H]3C(=O)N(C(C)(C)C)C(=O)[C@@H]3CC[C@@H]12` registered its composite z-score at -0.92

----------
Tested on: Noggin (protein binding on small-molecule microarray)
TEST NAME: Noggin binders on small-molecule microarray, primary screen, biochemical, 635/667 nm fluorescence (AID 1095);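 further: score merges 667 nm feature fluorescence with signal to noise over triplicate slides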
REPORTED CONDITIONS: 635 nm fluorescence, higher = more signal
Classification by composite z-score follows these ranges: low range (below 0.2), mid range (0.2 to below 0.6), high range (0.6 or more)

• CCOC(=O)[C@H](CC(C)C)NC(=O)CCC1CC(OC(=O)NCc2ccc3c(c2)OCO3)CC2(CCCC(COC(=O)NCc3cccc(C(F)(F)F)c3)O2)O1 (some centres undefined) = low range
• COCCNC(=O)OCC1CCCC2(CC(OC(=O)NCc3ccc4c(c3)OCO4)CC(CCC(=O)N[C@@H](C)C(=O)OC)O2)O1 (some centres undefined) = mid range
• CO[C@H]1COC(=O)CC=C[C@@H](C)[C@H](OC)COC(=O)[C@@H]2CCCN2C(=O)CC=C[C@@H]1C = high range
• CCOC(=O)[C@H](CC(C)C)NC(=O)CCC1CC(OC(=O)NCc2cccc3ccccc23)CC2(CCCC(COC(=O)NCc3ccncc3)O2)O1 (some centres undefined) = mid range
• CC(C)=CCCC(C)=CCON=C1C[C@@H](O)[C@@H](O)[C@@H]2[C@@H]3C(=O)N(C(C)(C)C)C(=O)[C@@H]3CC[C@H]12 = high range

stdin: Could you tell me which band `O=C(NN=C1C[C@@H](O)[C@@H](O)[C@@H]2[C@@H]3C(=O)N(C4CCCCC4)C(=O)[C@@H]3CC[C@@H]12)OCc1ccccc1` belongs to?
stdout: low range

stdin: Could you tell me which band `COC(=O)CC=C[C@@H](C)[C@H](OCc1cccc(-c2ccccc2)c1)C1CCCCC1` belongs to?
stdout: low range
